Values from PubChem BioAssay AID1508591

condition description: rat; liver microsomes; pH 7.4; 15.0 min; 1.0 µM

structure string	half-life
O=C1NCc2cc(-c3cc4c(ccn4Cc4ccncc4)c(N4CCOCC4)n3)ccc21	13.4 min
CCCCn1cnc2cc(NC(=O)c3cc(OC)c(OC)c(OC)c3)ccc21	> 30 min
Cc1cnc(-c2ccccc2C(C)C)nc1NCC1CCN(c2cccnc2)CC1	3.9 min
Cn1cc2c3c(cccc31)CN(C(=O)c1ccc(F)c(Cl)c1)CC2	1.88 min
Cc1cnc(-c2ccccc2C(C)C)nc1NCC1CCN(C2COC2)CC1	7.7 min

----------
Catalogue of half-life values
condition description: rat; liver microsomes; pH 7.4; 15.0 min; 1.0 µM

compound	result units	half-life
COc1cccc(CNC(=O)CCCn2nc(C)c3c(C)n(-c4ccc(C)cc4)nc3c2=O)c1OC	min	1.07
NC(=O)C1CCN(c2nc(-c3cccc(C(F)(F)F)c3)cs2)CC1	min	1.99
Cc1cc(-c2nnc3n2CCCCC3)c(C)n1-c1cccc(C#N)c1	min	8.1
CC(=O)N1CCC2(CCCN(c3ccc(-c4ccccc4)cc3)C2)CC1	min	16
COCCN1CCNc2nc(COc3ccc(C(C)C)cc3)n(Cc3ccccc3)c2C1=O	min	1.82
CCOc1ccc(NC(=O)c2nc(S(=O)(=O)Cc3ccccc3F)ncc2Cl)cc1	min	1.43
NC(=O)C1CCN(c2nc(-c3ccccc3F)cs2)CC1	min	3.04
Cc1ccc(S(=O)(=O)Nc2ccc(Cl)cc2C(=O)Nc2nc(-c3ccccc3)cs2)cc1	min	3.4
NC(=O)C1CCN(c2nc(-c3ccc4occc(=O)c4c3)cs2)CC1	min	6.19
CC1=C(C(=O)NCc2ccccc2)C(c2ccccc2Br)N=C(Nc2nc3ccccc3o2)N1 (stereo not given)	min	7

----------
condition description: rat; liver microsomes; pH 7.4; 15.0 min; 1.0 µM
Threshold 4 min: half-life strictly smaller gives yes, otherwise no.

compound	label
COc1ccc(-c2csc(C3=C(O)CN(Cc4ccc(Cl)cc4)C3=N)n2)cc1OC	no
COc1ccc(N(C)C(=O)c2cc3c(s2)-c2ccccc2OC3)cc1	no
COC(=O)CNC(=O)c1nc(-c2ccc(Cl)nc2)c2cnccn12	no
CC(=O)c1c(C)[nH]c(C(=O)Nc2cccc([S+](=O)([O-])Nc3cccnc3)c2)c1C	no
Oc1ccc(C(=S)N2CCN(c3cccc(Cl)c3)CC2)cc1	yes
Cc1ccc(-c2cc(C(=O)Nc3cccc(S(N)(=O)=O)c3)c3ccccc3n2)cc1C	no
Cc1ccc(S(=O)(=O)Nc2ccccc2C(=O)Nc2cnc(-c3ccccc3)cn2)cc1	yes
O=S(=O)(Nc1nccs1)c1ccc(NCc2cccc(Cl)c2O)cc1	no
COc1ccccc1-c1nc(NCc2cnc(C)cn2)c2ccccc2n1	no
O=c1[nH]cnc2c1ccn2C1OC(CO)C(O)C1O (stereo unspecified)	no
Cc1cc(C)c2nc(-c3ccccn3)cc(C(=O)Nc3ccc(S(=O)(=O)Nc4onc(C)c4C)cc3)c2c1	no
Cc1ccc(S(=O)(=O)Nc2ccccc2C(=O)Nc2ncc(-c3ccccc3)o2)cc1	yes
COc1ccc(C2CC(=O)Nc3nc(N)sc32)cc1OC (stereo unspecified)	no
O=c1c(O)c(-c2ccc(O)cc2)oc2cc(O)cc(O)c12	no
CCCCn1cnc2cc(NCc3ccc(OCC)cc3)ccc21	no
COC(=O)[C@H](Cc1ccc(O[S+](=O)([O-])c2cccc3cnccc23)cc1)N[S+](=O)([O-])c1ccc2cnccc2c1	yes
CNc1nc(C#N)c(-c2cccc3ccccc23)o1	no
CCc1ccc(-n2c(=O)c3cccnc3n2CC(=O)Nc2cc(OC)ccc2OC)cc1	yes
Cc1nc(N2CCN(c3ccccn3)CC2)c2c(C)c(C(=O)Nc3ccc(F)cc3Cl)sc2n1	no
O=C(Nc1ncc(Cc2cccc(C(F)(F)F)c2)s1)c1ccc(-c2cccc([N+](=O)[O-])c2)o1	no
CCOc1ccc(C(=O)Nc2ccc(S(=O)(=O)N3CCCCC3c3cccnc3)cc2)cc1 (stereo unspecified)	yes
